Test system: HL-60(TB) leukemia
Assay Procedure: NCI-60 one-dose screen, 48 h (100 = growth as untreated, 0 = no growth, -100 = all killed)
Condition Summary: 10 µM unless noted
The panel holds about 83,000 compounds, 20% with a hit somewhere; the sample as a whole holds those more often.
Attribute: growth

[
  {
    "Smiles Text": "C/C(=N\\O)[C@H]1C[C@]23CC[C@]4(C)[C@H](CC[C@@H]5[C@@]6(C)CC/C(=N/O)C(C)(C)[C@@H]6CC[C@]54C)[C@H]2[C@H](C)C1(C)OC3",
    "Study System": "HL-60(TB) leukemia",
    "growth / %": 121
  },
  {
    "Smiles Text": "O=C1Nc2ccccc2/C1=N\\c1nnc(-c2ccccc2)o1",
    "Study System": "HL-60(TB) leukemia",
    "growth / %": 99.6
  },
  {
    "Smiles Text": "C=C(C)[C@@H]1CC[C@]2(COCCCNCCC#N)CC[C@]3(C)[C@H](CC[C@@H]4[C@@]5(C)CC[C@H](OCCCNCCC#N)C(C)(C)[C@@H]5CC[C@]43C)[C@@H]12",
    "Study System": "HL-60(TB) leukemia",
    "growth / %": 0.0603
  },
  {
    "Smiles Text": "Cc1csc(/N=C(N)/N=C(\\N)c2cccc(Br)c2)n1",
    "Study System": "HL-60(TB) leukemia",
    "growth / %": 91.3
  }
]

----------
Test system: HL-60(TB) leukemia
Assay Procedure: NCI-60 one-dose screen, 48 h
Condition Summary: 10 µM unless noted
This is part of a sample that, as a whole, favours compounds with a hit. Of some 83,000 tested, about 20% had one in any assay. Calls of active or inactive are those of the source. How the source made its calls: active means growth percent below 10; inactive means the rest.
Labels: T (active), F (inactive)

[
  {
    "Compound": "CC(C)(C)OC(=O)Nc1ccc(-c2cccc(Oc3ccc4nnc(Cl)n4n3)c2)cc1",
    "Classification": "F"
  },
  {
    "Compound": "O=C1C2=C(C(=O)c3c(O)cccc31)C(c1ccco1)c1sc(=O)[nH]c1S2 (stereo not given)",
    "Classification": "T"
  },
  {
    "Compound": "CCOc1ccc(C(=O)Nc2ncc(Cc3ccc(F)cc3)s2)cc1",
    "Classification": "T"
  },
  {
    "Compound": "CC[C@@](C)(NC(=O)C(C)(C)NC(=O)[C@@H](NC(=O)[C@@H]1CCCN1C(=O)C(C)(C)NC(=O)[C@H](CC(C)C)NC(=O)CNC(=O)C(C)(C)NC(=O)[C@@H](NC(=O)C(C)(C)NC(=O)[C@H](CCC(N)=O)NC(=O)[C@H](C)NC(=O)C(C)(C)NC(=O)[C@H](C)NC(=O)C(C)(C)NC(=O)[C@H](C)NC(=O)C(C)(C)NC(C)=O)C(C)C)C(C)C)C(=O)N[C@@H](CCC(N)=O)C(=O)N[C@@H](CCC(N)=O)C(=O)N[C@H](CO)CC1CCCCC1",
    "Classification": "T"
  },
  {
    "Compound": "CCN(CC)c1ccc(/C=N/NC(=O)c2ccc(NS(C)(=O)=O)cc2)c(O)c1",
    "Classification": "T"
  }
]

----------
Test system: NCI/ADR-RES ovarian
Assay Procedure: NCI-60 one-dose screen, 48 h (100 = growth as untreated, 0 = no growth, -100 = all killed)
Condition Summary: 10 µM
Compounds without any hit were thinned out: in the full panel of roughly 83,000, 20% have a hit.

[
  {
    "Compound": "CN1C(=O)[C@]23SSC1(C)C(=O)N2[C@H]1Nc2ccccc2C1([C@@]12c4ccccc4N[C@@H]1N1C(=O)C4(C)SS[C@]1(C(=O)N4C)[C@H]2O)[C@@H]3O (some centres not stated)",
    "growth / %": -19.4
  },
  {
    "Compound": "CC1=C2C(=C[C@@](C)(C=O)[C@@H]2O)C(=O)[C@](C)(O)C12CC2",
    "growth / %": 1.41
  },
  {
    "Compound": "C/C=C\\C(=O)O[C@@H]1CC2O[C@@H]3C=C(C)C(=O)C[C@]3(C)[C@]1(C)[C@]21CO1",
    "growth / %": -3.97
  },
  {
    "Compound": "CC(C)=CCc1c2c(c(O)c3c1O[C@]14C(=C[C@@H]5C[C@H]1C(C)(C)O[C@@]4(C/C=C(/C)C(=O)O)C5=O)C3=O)C=CC(C)(C)O2",
    "growth / %": 4.39
  },
  {
    "Compound": "CC1=C(CN(O)C(N)=O)C2=C(C)C3(CC3)[C@@](C)(O)C(=O)C2=C1",
    "growth / %": -5.11
  },
  {
    "Compound": "Cc1ccc(CNc2nc3ccc(OC/C(=C/F)CN)cc3o2)cn1",
    "growth / %": 102
  },
  {
    "Compound": "CC1=C[C@H]2O[C@@H]3C[C@H]4OC(=O)/C=C\\C=C\\[C@H]([C@@H](C)O)OCC[C@@H](C)[C@H](O)C(=O)OC[C@@]2(CC1)[C@]4(C)[C@]31CO1",
    "growth / %": -24.9
  },
  {
    "Compound": "COc1cc2c(O[C@@H]3OC[C@H](O)[C@H](O)[C@H]3O)c3c(c(-c4ccc5c(c4)OCO5)c2cc1OC)C(=O)OC3",
    "growth / %": 90.1
  },
  {
    "Compound": "C[C@@H]1C[C@H]2C(=O)O[C@@H](C)C(NC(=O)[C@H](Cc3cc(F)cc(F)c3)NC(=O)Nc3ccc(OS(=O)(=O)F)cc3)C(=O)N3CCC[C@H]3C(=O)N3CCO[C@H](C)[C@H]3C(=O)N[C@@H](CO)C(=O)N2C1 (some centres not stated)",
    "growth / %": 99.2
  },
  {
    "Compound": "N#Cc1c(-n2c(Br)c(Br)c3cc(Br)ccc32)[nH]c2c(Br)cc(Br)cc12",
    "growth / %": -2.1
  },
  {
    "Compound": "COC(=O)[C@H]1[C@@H](O)[C@@]2(O)c3c(OC)cc(OC)cc3O[C@@]2(c2ccc(OC)cc2)[C@@H]1c1ccccc1",
    "growth / %": 0.819
  },
  {
    "Compound": "CCC(C)[C@H]1C(=O)O[C@H](C(C)C)C(=O)N(C)[C@@H](C(C)C)C(=O)O[C@H](C(C)C)C(=O)N(C)[C@@H](C(C)C)C(=O)O[C@H](C(C)C)C(=O)N1C (some centres not stated)",
    "growth / %": 5.25
  },
  {
    "Compound": "COC1[C@@H]2C[C@H]3C(C)(C)O[C@@](C/C=C(/C)C(=O)O)(C2=O)[C@]32Oc3c(CC=C(C)C)c4c(c(O)c3C(=O)[C@H]12)C=CC(C)(C)O4 (some centres not stated)",
    "growth / %": -10.9
  },
  {
    "Compound": "CC1=C[C@H]2O[C@@H]3C[C@H]4OC(=O)/C=C\\C=C\\[C@H]([C@@H](C)O)OCC/C(C)=C/C(=O)OC[C@@]2(CC1)[C@]4(C)[C@]31CO1",
    "growth / %": -20
  },
  {
    "Compound": "O=C(CCCc1ccc(N(CCCl)CCCl)cc1)OCc1ccccc1",
    "growth / %": 93.9
  },
  {
    "Compound": "C=C1[C@@H](C)C2[C@H](Cc3ccccc3)NC(=O)[C@]23[C@H](OC(C)=O)/C=C/[C@@](C)(O)C(=O)[C@@H](C)C/C=C/[C@H]3[C@@H]1O (some centres not stated)",
    "growth / %": 98.5
  },
  {
    "Compound": "NC1CCc2cc(O)c(O)cc2C1 (configuration not stated)",
    "growth / %": 85.6
  },
  {
    "Compound": "COc1cc(OC)c(S(=O)(=O)N(CCCl)CCCl)cc1C(=O)/C=C/c1ccc(Cl)cc1",
    "growth / %": 52.3
  },
  {
    "Compound": "COc1cccc2c1cc([N+](=O)[O-])c1c(C(=O)O)cc3c(c12)OCO3",
    "growth / %": 107
  },
  {
    "Compound": "CC1=C2C(=O)[C@](C)(CO)C=C2C(=O)[C@](C)(O)C12CC2",
    "growth / %": 5.56
  },
  {
    "Compound": "CN(CCF)/N=N/c1nc[nH]c1C(N)=O",
    "growth / %": 32.5
  },
  {
    "Compound": "COc1cc2c(O[C@@H]3OC[C@H](OC(C)=O)[C@H](OC(C)=O)[C@H]3O)c3c(c(-c4ccc5c(c4)OCO5)c2cc1OC)C(=O)OC3",
    "growth / %": 37.7
  }
]
